assay: Apparent permeability across basolateral to apical side in human Caco2 cells measured at 60 to 120 mins by LC/MS/MS analysis
Type: ADME, cell-based
assay-setup: Caco-2, read-out: permeability
experimental-readout: Papp B→A (×10⁻⁶ cm/s)
Field format: number, assumed ×10⁻⁶ cm/s, no unit text.

Task: Recall and state the measured Papp B→A for CO[C@H]1C(=O)N[C@@H](C(C)C)C(=O)N[C@@H](C)C(=O)N2CCC[C@H](N2)C(=O)O[C@H](C)c2cccc(c2)/C=C/CC[C@H]1C .
Output: 31

Task: Recall and state the measured Papp B→A for CC(C)[C@@H]1NC(=O)C/C=C/c2cc3cc(ccc3cn2)[C@@H](C)OC(=O)[C@@H]2CCCN(N2)C(=O)[C@H](C)NC1=O .
Output: 13

Task: Recall and state the measured Papp B→A for CC(C)[C@@H]1OC(=O)C2(/C=C/c3ccc4ccc(nc4c3)[C@@H](C)NC(=O)[C@@H]3CCCN(N3)C(=O)[C@H](C)NC1=O)CCC(O)CC2 (stereo in doubt; 47) .
Output: 9.2

Task: Recall and state the measured Papp B→A for CC(C)[C@@H]1OC(=O)C2(/C=C/c3ccc4ccc(nc4c3)[C@@H](C)NC(=O)[C@@H]3CCCN(N3)C(=O)[C@H](C)NC1=O)CCOCC2 .
Output: 19

Task: Recall and state the measured Papp B→A for CC(C)[C@@H]1NC(=O)CC/C=C/c2cc3cc(ccc3cn2)[C@@H](C)OC(=O)[C@@H]2CCCN(N2)C(=O)[C@H](C)NC1=O .
Output: 25

Task: Recall and state the measured Papp B→A for CC(C)[C@@H]1OC(=O)C(C)(C)/C=C/c2cc3cc(ccc3cn2)[C@@H](C)NC(=O)[C@@H]2CCCN(N2)C(=O)[C@H](C)NC1=O .
Output: 7.9

Task: Recall and state the measured Papp B→A for CC(C)[C@@H]1NC(=O)C(C)(C)/C=C/c2ccc3ccc(nc3c2)[C@@H](C)OC(=O)[C@@H]2CCCN(N2)C(=O)[C@H](C)NC1=O .
Output: 21

Task: Recall and state the measured Papp B→A for CC(C)[C@@H]1NC(=O)C/C=C/c2ccc3ccc(cc3c2)[C@@H](C)OC(=O)[C@@H]2CCCN(N2)C(=O)[C@H](C)NC1=O .
Output: 38

Task: Recall and state the measured Papp B→A for CC(C)[C@@H]1OC(=O)C2(/C=C/c3ccc4ccc(nc4c3)[C@@H](C)NC(=O)[C@@H]3CCCN(N3)C(=O)[C@H](C)NC1=O)CCS(=O)(=O)CC2 .
Output: 12

Task: Recall and state the measured Papp B→A for CC(C)[C@@H]1NC(=O)C/C=C/c2ccc3ccc(nc3c2)[C@@H](C)OC(=O)[C@@H]2CCCN(N2)C(=O)[C@H](C)NC1=O .
Output: 3.5

Task: Recall and state the measured Papp B→A for CO[C@@H]1/C=C/c2cc3cc(ccc3cn2)[C@@H](C)OC(=O)[C@@H]2CCCN(N2)C(=O)[C@H](C)NC(=O)[C@H](C(C)C)NC(=O)[C@@H]1C .
Output: 37

Task: Recall and state the measured Papp B→A for CC(C)[C@@H]1NC(=O)C(C)(C)/C=C/c2cc3cc(ccc3cn2)[C@@H](C)OC(=O)[C@@H]2CCCN(N2)C(=O)[C@H](C)NC1=O .
Output: 34

Task: Recall and state the measured Papp B→A for CO[C@H]1CC[C@@]2(/C=C/c3ccc4ccc(nc4c3)[C@@H](C)NC(=O)[C@@H]3CCCN(N3)C(=O)[C@H](C)NC(=O)[C@H](C(C)C)OC2=O)CC1 .
Output: 33

* * *

Please provide measured logD at 0.5 h for the entries that follow.
assay: Lipophilicity, log D of the compound at pH 7.4 after 30 mins by HPLC/UV analysis
Assay type: physicochemical
assay-setup: buffer

Task: Recall and state the measured logD at 0.5 h for CC(C)[C@@H]1NC(=O)C(C)(C)/C=C/c2cc3cc(ccc3cn2)[C@@H](C)OC(=O)[C@@H]2CCCN(N2)C(=O)[C@H](C)NC1=O .
Output: 2.1

Task: Recall and state the measured logD at 0.5 h for CO[C@H]1CC[C@@]2(/C=C/c3ccc4ccc(nc4c3)[C@@H](C)NC(=O)[C@@H]3CCCN(N3)C(=O)[C@H](C)NC(=O)[C@H](C(C)C)OC2=O)CC1 .
Output: 3.1

Task: Recall and state the measured logD at 0.5 h for CC(C)[C@@H]1OC(=O)C(CO)(CO)/C=C/c2ccc3ccc(nc3c2)[C@@H](C)NC(=O)[C@@H]2CCCN(N2)C(=O)[C@H](C)NC1=O .
Output: 1

Task: Recall and state the measured logD at 0.5 h for CC(C)[C@@H]1NC(=O)C/C=C/c2cc3cc(ccc3cn2)[C@@H](C)OC(=O)[C@@H]2CCCN(N2)C(=O)[C@H](C)NC1=O .
Output: 1.1

* * *

Please provide measured solubility for the entries that follow.
assay: Aqueous solubility of the compound at pH 7.2
Type: physicochemical

Task: Recall and state the measured solubility for CC(C)[C@@H]1NC(=O)C(C)(C)/C=C/c2cc3cc(ccc3cn2)[C@@H](C)OC(=O)[C@@H]2CCCN(N2)C(=O)[C@H](C)NC1=O .
Output: < 6 µg/mL

Task: Recall and state the measured solubility for CC(C)[C@@H]1NC(=O)C(C)(C)/C=C/c2ccc3ccc(nc3c2)[C@@H](C)OC(=O)[C@@H]2CCCN(N2)C(=O)[C@H](C)NC1=O .
Output: < 6 µg/mL

* * *

assay: Apparent permeability across apical to basolateral side in human Caco2 cells measured at 60 to 120 mins by LC/MS/MS analysis
Assay type: ADME, cell-based
assay-setup: Caco-2, read-out: permeability
Please provide measured Papp A→B for the entries that follow.
Field format: number, assumed ×10⁻⁶ cm/s, no unit text.

Task: Recall and state the measured Papp A→B for CC(C)[C@@H]1OC(=O)C(C)(C)/C=C/c2cc3cc(ccc3cn2)[C@@H](C)NC(=O)[C@@H]2CCCN(N2)C(=O)[C@H](C)NC1=O .
Output: 0.1

Task: Recall and state the measured Papp A→B for CC(C)[C@@H]1OC(=O)C2(/C=C/c3ccc4ccc(nc4c3)[C@@H](C)NC(=O)[C@@H]3CCCN(N3)C(=O)[C@H](C)NC1=O)CCOCC2 .
Output: 3.2

Task: Recall and state the measured Papp A→B for CC(C)[C@@H]1NC(=O)C/C=C/c2ccc3ccc(cc3c2)[C@@H](C)OC(=O)[C@@H]2CCCN(N2)C(=O)[C@H](C)NC1=O .
Output: 6.2

* * *

Please provide measured half-life at 2 µM for the entries that follow.
assay: Half life in human plasma at 2 uM up to 4 hrs by LC/MS/MS analysis
Type: ADME, cell-free

Task: Recall and state the measured half-life at 2 µM for CC(C)[C@@H]1NC(=O)CC/C=C/c2cc3cc(ccc3cn2)[C@@H](C)OC(=O)[C@@H]2CCCN(N2)C(=O)[C@H](C)NC1=O .
Output: > 25 h

Task: Recall and state the measured half-life at 2 µM for CC(C)[C@@H]1NC(=O)C/C=C/c2ccc3ccc(cc3c2)[C@@H](C)OC(=O)[C@@H]2CCCN(N2)C(=O)[C@H](C)NC1=O .
Output: > 25 h

Task: Recall and state the measured half-life at 2 µM for CC(C)[C@@H]1OC(=O)C(C)(C)/C=C/c2ccc3ccc(nc3c2)[C@@H](C)NC(=O)[C@@H]2CCCN(N2)C(=O)[C@H](C)NC1=O .
Output: > 25 h

Task: Recall and state the measured half-life at 2 µM for CO[C@@H]1/C=C/c2cc3cc(ccc3cn2)[C@@H](C)OC(=O)[C@@H]2CCCN(N2)C(=O)[C@H](C)NC(=O)[C@H](C(C)C)NC(=O)[C@@H]1C .
Output: 12.5 h

Task: Recall and state the measured half-life at 2 µM for CC(C)[C@@H]1OC(=O)C(C)(C)/C=C/c2cc3cc(ccc3cn2)[C@@H](C)NC(=O)[C@@H]2CCCN(N2)C(=O)[C@H](C)NC1=O .
Output: > 25 h

Task: Recall and state the measured half-life at 2 µM for CC(C)[C@@H]1OC(=O)C2(/C=C/c3ccc4ccc(nc4c3)[C@@H](C)NC(=O)[C@@H]3CCCN(N3)C(=O)[C@H](C)NC1=O)COCOC2 .
Output: > 25 h

Task: Recall and state the measured half-life at 2 µM for CC(C)[C@@H]1NC(=O)C(C)(C)/C=C/c2cc3cc(ccc3cn2)[C@@H](C)OC(=O)[C@@H]2CCCN(N2)C(=O)[C@H](C)NC1=O .
Output: > 25 h

Task: Recall and state the measured half-life at 2 µM for CC(C)[C@@H]1NC(=O)C/C=C/c2ccc3ccc(nc3c2)[C@@H](C)OC(=O)[C@@H]2CCCN(N2)C(=O)[C@H](C)NC1=O .
Output: 8.87 h

Task: Recall and state the measured half-life at 2 µM for CC(C)[C@@H]1NC(=O)C(C)(C)/C=C/c2ccc3ccc(nc3c2)[C@@H](C)OC(=O)[C@@H]2CCCN(N2)C(=O)[C@H](C)NC1=O .
Output: 17.1 h

Task: Recall and state the measured half-life at 2 µM for CO[C@H]1C(=O)N[C@@H](C(C)C)C(=O)N[C@@H](C)C(=O)N2CCC[C@H](N2)C(=O)O[C@H](C)c2cccc(c2)/C=C/CC[C@H]1C .
Output: > 25 h

Task: Recall and state the measured half-life at 2 µM for CC(C)[C@@H]1NC(=O)C/C=C/c2cc3cc(ccc3cn2)[C@@H](C)OC(=O)[C@@H]2CCCN(N2)C(=O)[C@H](C)NC1=O .
Output: 9.32 h

These data points were gathered from ChEMBL document CHEMBL4152348.
